The origin of these recorded values is patent EP4635958A1.

# assaySummary: Plasma stability test, human plasma
# Assay type: in vitro ADME
# conditionLabel: human, plasma
testReadout: half-life (min)
All answers are understood in min, so give the number only.

Quick one: give measured half-life for CC(C)[N+](C)(CCOC(=O)C1c2ccccc2Oc2ccccc21)C(C)C [Propantheline bromide, propantheline bromide, reference compound]
16.2

---

# assaySummary: Pharmacokinetic determination in rats (IV and PO, plasma, LCMS/MS)
# Assay type: in vivo, SD rats
# conditionLabel: PO 30 mg/kg vs IV 1 mg/kg, male SD rats
testReadout: F (%)
All answers are understood in %, so give the number only.

Consider the reported F for these compounds:
structureSmiles | testReadout | resultValue
C#Cc1c(F)ccc2cc(O)cc(-c3nc4c5c(nc(OCC6(CN7CCC(=C(F)F)CC7)CC6)nc5c3F)N3C[C@H]5CC[C@H](N5)[C@H]3[C@H](C)O4)c12 | F | 5.4
C#Cc1c(F)ccc2cc(O)cc(-c3nc4c5c(nc(OCC6(CN7CCC(=C(F)F)CC7)CC6)nc5c3F)N3C[C@H]5CC[C@H](N5)[C@H]3[C@H](CC)O4)c12 | F | 18

Moving on to another compound below.
Quick one: give measured F for `C#Cc1c(F)ccc2cc(O)cc(-c3nc4c5c(nc(OCC6(CN7CCC(=NOC)CC7)CC6)nc5c3F)N3C[C@H]5CC[C@H](N5)[C@H]3[C@H](C)O4)c12`
3.5

---

Parameter: pIC50. Scope: all listed entries.
# systemName: KRAS WT (Homo sapiens, UniProt P01116)
# Sequence (P01116 1-188 isoform P01116-2): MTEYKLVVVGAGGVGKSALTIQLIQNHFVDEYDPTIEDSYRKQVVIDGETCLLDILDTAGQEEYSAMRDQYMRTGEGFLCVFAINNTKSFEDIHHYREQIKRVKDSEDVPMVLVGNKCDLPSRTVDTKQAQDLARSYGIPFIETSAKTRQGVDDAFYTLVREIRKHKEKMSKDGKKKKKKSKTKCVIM
# assaySummary: KRAS WT biochemical assay (Table 1, no method of its own)
# Format: binding
# conditionLabel: read-out: KRAS WT Biochemical IC50
As a rule, pIC50 stands for the negative log10 of the concentration, concentration in M.

compound | systemName | pIC50
C#Cc1c(F)ccc2cc(O)cc(-c3nc4c5c(nc(OCC6(CN7CCC(=CF)C7)CC6)nc5c3F)N3CC5CCC(N5)C3CO4)c12 (stereo not shown) [Example 15-1] | KRAS WT (Homo sapiens, UniProt P01116) | 7.59

Quick one: give measured pIC50 for C#Cc1c(F)ccc2cc(O)cc(-c3nc4c5c(nc(OCC6(CN7CC8CC(=C(F)F)CC8C7)CC6)nc5c3F)N3CC5CCC(N5)C3CO4)c12 (stereo not shown) [Example 17-1]
7.24

Quick one: give measured pIC50 for C#Cc1c(F)ccc2cc(O)cc(-c3nc4c5c(nc(OCC6(CN7CCC(=NOC)CC7)CC6)nc5c3F)N3CC5CCC(N5)C3CO4)c12 (stereo not shown) [Example 21-1]
7.22

Quick one: give measured pIC50 for C#Cc1c(F)ccc2cc(O)cc(-c3nc4c5c(nc(OCC6(CN7CCC(=C(F)F)C7)CC6)nc5c3F)N3CC5CCC(N5)C3CO4)c12 (stereo not shown) [Example 14-1]
6.82

---

# assaySummary: Pharmacokinetic determination in rats (IV and PO, plasma, LCMS/MS)
# Type: in vivo, SD rats
# conditionLabel: rat, in vivo; IV, 1 mg/kg, male SD rats, overnight fasting, plasma; read-out: C0
testReadout: C0 (ng/mL)
All answers are understood in ng/mL, so give the number only.

Quick one: give measured C0 for C#Cc1c(F)ccc2cc(O)cc(-c3nc4c5c(nc(OCC6(CN7CCC(=NOC)CC7)CC6)nc5c3F)N3C[C@H]5CC[C@H](N5)[C@H]3[C@H](C)O4)c12 [Example 35-1]
2810

Quick one: give measured C0 for C#Cc1c(F)ccc2cc(O)cc(-c3nc4c5c(nc(OCC6(CN7CCC(=C(F)F)CC7)CC6)nc5c3F)N3C[C@H]5CC[C@H](N5)[C@H]3[C@H](CC)O4)c12 [Example 124]
524

Quick one: give measured C0 for C#Cc1c(F)ccc2cc(O)cc(-c3nc4c5c(nc(OCC6(CN7CCC(=C(F)F)CC7)CC6)nc5c3F)N3C[C@H]5CC[C@H](N5)[C@H]3[C@H](C)O4)c12 [Example 19-1]
1720

Quick one: give measured C0 for C#Cc1c(F)ccc2cc(O)cc(-c3nc4c5c(nc(OCC6(CN7CCC(=CF)CC7)CC6)nc5c3F)N3C[C@H]5CC[C@H](N5)[C@H]3[C@H](CC)O4)c12 [Example 137]
1630

Quick one: give measured C0 for [2H]C([2H])([2H])[C@@H]1Oc2nc(-c3cc(N)cc(Cl)c3C(F)(F)F)c(F)c3nc(OCC4(CN5CCC(=NOC)CC5)CC4)nc(c23)N2C[C@H]3CC[C@H](N3)[C@@H]12 [Example 339]
174

---

# assaySummary: Plasma stability test, human plasma;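 note: test compound incubated in human plasma, quantified by LC-MS/MS (positive-ion ESI, MRM) against an internal standard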
# Format: in vitro ADME
# conditionLabel: Human plasma, 37°C, 120 min
# Criterion met = Remaining rate (%) 120 min below 90% (exclusive); Criterion not met = Remaining rate (%) 120 min at/above 90%

structureSmiles | labelClass
C#Cc1c(F)ccc2cc(O)cc(-c3nc4c5c(nc(OCC6(CN7CCC(=CF)CC7)CC6)nc5c3F)N3C[C@H]5CC[C@H](N5)[C@H]3[C@H](C)O4)c12 | Criterion not met
[2H]C([2H])(Oc1nc2c3c(nc(-c4cc(O)cc5ccc(F)c(C#C)c45)c(F)c3n1)O[C@@H](C)[C@@H]1[C@@H]3CC[C@H](CN21)N3)C1(C([2H])([2H])N2CCC(=CF)CC2)CC1 | Criterion not met

Here is the next item to consider.
Does the reported Remaining rate (%) 120 min of `C#Cc1c(F)ccc2cc(O)cc(-c3nc4c5c(nc(OCC6(CN7CCC(=C(F)F)CC7)CC6)nc5c3F)N3C[C@H]5CC[C@H](N5)[C@H]3[C@H](C)O4)c12` stay below 90%?
Criterion met

---

# assaySummary: Pharmacokinetic determination in rats (IV and PO, plasma, LCMS/MS)
# Format: in vivo, SD rats
# conditionLabel: rat, in vivo, po, 30 mg/kg
# Method: SD rats were used as test animals to study the pharmacokinetic behavior of the example compounds in rats (plasma) after oral administration. The example compounds of the present invention, made in house. 3 SD rats per group, male. Shanghai Jiesijie Experimental Animal Co., Ltd., animal production license number (SCXK (Shanghai) 2013-0006 N0.311620400001794). Formulation of a drug for oral administration: 10% Captisol in 50 mM citrate buffer pH 5.0. […]
testReadout: AUC(0-inf) (ng·h/mL)
All answers are understood in ng·h/mL, so give the number only.

Quick one: give measured AUC(0-inf) for `[2H]C([2H])([2H])[C@@H]1Oc2nc(-c3cc(O)cc4ccc(F)c(C#C)c34)c(F)c3nc(OCC4(CN5CCC(=C(F)F)CC5)CC4)nc(c23)N2C[C@H]3CC[C@H](N3)[C@@H]12`
2890

---

# assaySummary: Pharmacokinetic determination in rats (IV and PO, plasma, LCMS/MS)
# Assay type: in vivo, SD rats
# conditionLabel: rat, in vivo; PO, 30 mg/kg, male SD rats, overnight fasting, plasma; read-out: Cmax
Parameter: Cmax. Scope: all listed entries.
All answers are understood in ng/mL, so give the number only.

Quick one: give measured Cmax for C#Cc1c(F)ccc2cc(O)cc(-c3nc4c5c(nc(OCC6(CN7CCC(=CF)CC7C)CC6)nc5c3F)N3CC5CCC(N5)C3C(C)O4)c12 (stereo not drawn)
73

Quick one: give measured Cmax for `C#Cc1c(F)ccc2cc(O)cc(-c3nc4c5c(nc(OCC6(CN7CCC(=NOC)CC7)CC6)nc5c3F)N3C[C@H]5CC[C@H](N5)[C@H]3[C@H](C)O4)c12`
108

Quick one: give measured Cmax for C#Cc1c(F)ccc2cc(O)cc(-c3nc4c5c(nc(OCC6(CN7CC8CC(=C(F)F)CC8C7)CC6)nc5c3F)N3C[C@H]5CC[C@H](N5)[C@H]3[C@H](C)O4)c12 (stereo partly drawn)
588

---

# assaySummary: Pharmacokinetic determination in rats (IV and PO, plasma, LCMS/MS)
# Format: in vivo, SD rats
# conditionLabel: rat, in vivo, iv, 1 mg/kg
testReadout: clearance

Quick one: give measured clearance for `[2H]C([2H])([2H])[C@@H]1Oc2nc(-c3cc(O)cc4ccc(F)c(C#C)c34)c(F)c3nc(OCC4(CN5CCC(=C(F)F)CC5)CC4)nc(c23)N2C[C@H]3CC[C@H](N3)[C@@H]12`
11.7 mL/min/kg

---

# assaySummary: Pharmacokinetic determination in rats (IV and PO, plasma, LCMS/MS)
# Assay type: in vivo, SD rats
# conditionLabel: rat, in vivo; IV, 1 mg/kg, male SD rats, overnight fasting, plasma; read-out: CL
testReadout: clearance (mL/min/kg)
All answers are understood in mL/min/kg, so give the number only.

structureSmiles | testReadout | resultValue
[2H]C([2H])([2H])[C@@H]1Oc2nc(-c3cc(N)cc(Cl)c3C(F)(F)F)c(F)c3nc(OCC4(CN5CCC(=NOC)CC5)CC4)nc(c23)N2C[C@H]3CC[C@H](N3)[C@@H]12 | clearance | 170

Quick one: give measured clearance for `C#Cc1c(F)ccc2cc(O)cc(-c3nc4c5c(nc(OCC6(CN7CCC(=C(F)F)CC7)CC6)nc5c3F)N3C[C@H]5CC[C@H](N5)[C@H]3[C@H](C)O4)c12`
8.8

Quick one: give measured clearance for `C#Cc1c(F)ccc2cc(O)cc(-c3nc4c5c(nc(OCC6(CN7CCC(=CF)CC7)CC6)nc5c3F)N3C[C@H]5CC[C@H](N5)[C@H]3[C@H](CC)O4)c12`
21

Quick one: give measured clearance for `C#Cc1c(F)ccc2cc(O)cc(-c3nc4c5c(nc(OCC6(CN7CCC(=C(F)F)CC7)CC6)nc5c3F)N3C[C@H]5CC[C@H](N5)[C@H]3CO4)c12`
5.6

Quick one: give measured clearance for `[2H]C([2H])([2H])[C@@H]1Oc2nc(-c3cc(O)cc4ccc(F)c(C#C)c34)c(F)c3nc(OCC4(CN5CCC(=CF)CC5)CC4)nc(c23)N2C[C@H]3CC[C@H](N3)[C@@H]12`
21.5
